molecular target: human RXFP1 (Homo sapiens, UniProt Q9HBX9); construct: expressed in transfected cells; test: RXFP1 cAMP assay (hRXFP1 HEK293 cAMP assay, HTRF); type: cell-based; conditions: HEK293 cells stably expressing human RXFP1, 30 min at room temperature, read-out: cAMP hRXFP1 HEK293 Assay EC50
Sequence (Q9HBX9 whole entry): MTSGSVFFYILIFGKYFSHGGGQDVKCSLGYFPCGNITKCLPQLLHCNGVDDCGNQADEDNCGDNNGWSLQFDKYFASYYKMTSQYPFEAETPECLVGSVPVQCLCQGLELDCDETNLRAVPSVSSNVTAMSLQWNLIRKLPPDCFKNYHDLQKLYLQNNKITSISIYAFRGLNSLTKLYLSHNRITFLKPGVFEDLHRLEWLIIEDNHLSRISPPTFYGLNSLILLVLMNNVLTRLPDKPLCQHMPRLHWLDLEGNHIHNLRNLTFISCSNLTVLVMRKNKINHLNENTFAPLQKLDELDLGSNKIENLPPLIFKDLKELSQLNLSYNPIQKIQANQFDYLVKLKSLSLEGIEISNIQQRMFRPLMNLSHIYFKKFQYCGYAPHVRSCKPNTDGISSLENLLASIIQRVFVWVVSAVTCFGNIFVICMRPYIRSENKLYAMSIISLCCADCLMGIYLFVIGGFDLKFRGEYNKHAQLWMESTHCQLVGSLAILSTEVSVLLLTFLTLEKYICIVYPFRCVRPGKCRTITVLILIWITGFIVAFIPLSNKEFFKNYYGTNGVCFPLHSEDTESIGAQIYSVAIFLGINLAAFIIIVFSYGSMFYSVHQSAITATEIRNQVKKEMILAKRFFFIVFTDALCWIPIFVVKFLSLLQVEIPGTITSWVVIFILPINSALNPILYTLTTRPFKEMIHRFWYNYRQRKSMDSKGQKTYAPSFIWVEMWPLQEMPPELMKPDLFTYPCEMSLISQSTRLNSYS
Experimental Readout: EC50 (nM)
Your answer is read as nM, so omit the unit and give the number.

Compound	Unit Text	Experimental Result
COc1ccc(C2=NOC3COCC23)cc1C(=O)N[C@H]1[C@@H](C(=O)NCc2ccccc2C2CC2)[C@H]2CC[C@@H]1/C2=C\C1CC1 (stereo partly drawn)	nM	121

Prompt: Entry COc1cc(F)c(F)cc1C(=O)N[C@@H]1C2CCC([C@@H]1C(=O)Nc1ccc(F)c(C(F)(F)F)c1)C21OCCO1 (stereo partly drawn) : reported EC50 = ?
Response: 1800

Prompt: Entry CC12CC(NC(=O)[C@@H]3[C@H](NC(=O)c4cc(C5=NOC6CC(CO)CC56)cc(F)c4OCC4CC4)[C@@H]4CC[C@H]3/C4=C/C3CC3)(C1)C2 (stereo partly drawn) : reported EC50 = ?
Response: 2.3

Prompt: Entry COc1ccc(C2=NOC(CO)C2)cc1C(=O)N[C@@H]1C2CCC(/C2=C/C2CC2)[C@@H]1C(=O)Nc1ccc(F)c(C(F)(F)F)c1 (stereo partly drawn) [compound 382] : reported EC50 = ?
Response: 118

Prompt: Entry COc1cc(C)c(C2=NOC3CC(CO)CC23)cc1C(=O)N[C@H]1[C@@H](C(=O)Nc2ccc(F)c(C(F)(F)F)c2)[C@H]2CC[C@@H]1/C2=C\C1CC1 (stereo partly drawn) [compound 740] : reported EC50 = ?
Response: 3.4

Prompt: Entry COc1ccc(-c2cc(C3=NOC4CC(CO)CC34)ccc2F)cc1C(=O)N[C@H]1[C@@H](C(=O)Nc2ccc(F)c(C(F)(F)F)c2)[C@H]2CC[C@@H]1/C2=C\C1CCCC1 (stereo partly drawn) [compound 952] : reported EC50 = ?
Response: 1.5

Prompt: Entry COc1ccc(C2=NO[C@@H]3[C@H](O)CC[C@H]23)cc1C(=O)N[C@H]1[C@@H](C(=O)Nc2ccc(F)c(C(F)(F)F)c2)[C@H]2CC[C@@H]1/C2=C\C1CC1 (single isomer, unassigned) : reported EC50 = ?
Response: 74.9

Prompt: Entry COCCOC1(C2CC(c3ccc(OC)c(C(=O)N[C@H]4[C@@H](C(=O)Nc5ccc(F)c(C(F)(F)F)c5)[C@H]5CC[C@@H]4/C5=C\C4CC4)c3)=NO2)CC1 (single isomer, unassigned) [compound 687] : reported EC50 = ?
Response: 658

Prompt: Entry COc1ccc(C2=NOC3CN(CCO)CC23)cc1C(=O)N[C@H]1[C@@H](C(=O)Nc2ccc(F)c(C(F)(F)F)c2)[C@H]2CC[C@@H]1/C2=C\C1CC1 (single isomer, unassigned) [compound 691] : reported EC50 = ?
Response: 735

Prompt: Entry COc1ccc(-c2cc(C(=O)N3CC[C@H](O)C3)on2)cc1C(=O)N[C@H]1[C@@H](C(=O)Nc2ccc(F)c(C(F)(F)F)c2)[C@H]2CC[C@@H]1/C2=C\C1CC1 : reported EC50 = ?
Response: 214

Prompt: Entry COc1ccc(C2=NOC3COCC23)cc1C(=O)N[C@H]1[C@@H](C(=O)NCc2ncccc2C(F)(F)F)[C@H]2CC[C@@H]1/C2=C\C1CC1 (stereo partly drawn) : reported EC50 = ?
Response: 712

Prompt: Entry COc1ccc(C2=NOC3CCCC23)cc1C(=O)N[C@H]1[C@@H](C(=O)Nc2ccc(F)c(C(F)(F)F)c2)[C@H]2CC[C@@H]1/C2=C\C1CC1 (single isomer, unassigned) [Example 441] : reported EC50 = ?
Response: 360

Prompt: Entry COc1ccc(-c2cc(-c3nnn[nH]3)ccc2F)cc1C(=O)N[C@@H]1C2CCC(/C2=C/c2ccccc2)[C@@H]1C(=O)Nc1ccc(F)c(C(F)(F)F)c1 (stereo partly drawn) : reported EC50 = ?
Response: 8

Prompt: Entry COc1ccc(-c2cc(S(=O)(=O)NC(C)(C)C)ccc2F)cc1C(=O)N[C@H]1[C@@H](C(=O)Nc2ccc(F)c(C(F)(F)F)c2)[C@H]2CC[C@@H]1/C2=C\C1CCCC1 : reported EC50 = ?
Response: 0.9

Prompt: Entry COc1ccc(C2=NOC3COCC23)cc1C(=O)N[C@H]1[C@@H](C(=O)NC(C)C2CCC2)[C@H]2CC[C@@H]1/C2=C\C1CC1 (single isomer, unassigned) : reported EC50 = ?
Response: 626

Prompt: Entry COc1ccc(-c2cc(CC(=O)O)ccc2F)cc1C(=O)N[C@@H]1C2CCC(C2=C(C)C)[C@@H]1C(=O)Nc1ccc(F)c(C(F)(F)F)c1 (stereo partly drawn) : reported EC50 = ?
Response: 87

Prompt: Entry CCCCNC(=O)[C@@H]1[C@H](NC(=O)c2cc(C3=NOC4COCC34)ccc2OC)[C@@H]2CC[C@H]1/C2=C/C1CC1 (stereo partly drawn) : reported EC50 = ?
Response: 138

Prompt: Entry CCCOc1c(F)cc(C2=NOC3CC(CO)CC23)cc1C(=O)N[C@H]1[C@@H](C(=O)Nc2ccc(F)c(C(F)(F)F)c2)[C@H]2CC[C@@H]1/C2=C\C1CC1 (stereo partly drawn) [compound 779] : reported EC50 = ?
Response: 1.6

Prompt: Entry O=C(N[C@H]1[C@@H](C(=O)Nc2ccc(F)c(C(F)(F)F)c2)[C@H]2CC[C@@H]1/C2=C\C1CC1)c1cccc(C2=NOC3CC(O)CC23)c1 (stereo partly drawn) : reported EC50 = ?
Response: 177

Prompt: Entry COc1cc(F)c(F)cc1C(=O)N[C@@H]1C2CCC(/C2=C/c2cccc(Cc3ccccc3)c2)[C@@H]1C(=O)Nc1ccc(F)c(C(F)(F)F)c1 (stereo partly drawn) : reported EC50 = ?
Response: 200

Prompt: Entry COc1ccc(-c2ccc(F)nc2F)cc1C(=O)N[C@H]1[C@@H](C(=O)Nc2ccc(F)c(C(F)(F)F)c2)[C@H]2CC[C@@H]1C2=C(C)C : reported EC50 = ?
Response: 2700
